ASSAY_NAME: clinical
CONDITION_DETAILS: human, in vivo, po, 180 mg/m2
ASSAY_ENDPOINT: AUC(0-t)

• CC(=O)O[C@H]1C(=O)[C@@]2(C)[C@H]([C@H](OC(=O)c3ccccc3)[C@]3(O)C[C@H](OC(=O)[C@H](O)[C@@H](NC(=O)c4ccccc4)c4ccccc4)C(C)=C1C3(C)C)[C@]1(OC(C)=O)CO[C@@H]1C[C@@H]2O = 1670 ng·h/mL

* * *

ASSAY_NAME: clinical
CONDITION_DETAILS: human, in vivo, po, 360 mg/m2
ASSAY_ENDPOINT: AUC(0-t) (ng·h/mL)

* CC(=O)O[C@H]1C(=O)[C@@]2(C)[C@H]([C@H](OC(=O)c3ccccc3)[C@]3(O)C[C@H](OC(=O)[C@H](O)[C@@H](NC(=O)c4ccccc4)c4ccccc4)C(C)=C1C3(C)C)[C@]1(OC(C)=O)CO[C@@H]1C[C@@H]2O | 2510

Ref: patent US20180207148A1
